- Procedure details: Pharmacokinetic study after oral administration
- Format: in vivo, Wistar albino rats
- Test settings: Wistar albino, rat, plasma; rats, oral 20 mg/kg, n = 6
Assay metric: MRT (h)
Write it as a number; the unit h goes unstated.

Ask: If you can, please state the reported MRT value of "CC1=CC(=O)C(C(C)C)=CC1=O" .
Result: 6.97

###

- Procedure details: Pharmacokinetic study after oral administration
- Assay type: in vivo, Wistar albino rats
- Test settings: Wistar albino, rat, plasma; rats, oral 20 mg/kg, n = 6
# reported AUC; entries follow
Write it as a number; the unit µg·h/mL goes unstated.

# Compound, Quantity unit, AUC
records = [
    ("CC(=O)Oc1ccccc1C(=O)Nc1ncc([N+](=O)[O-])s1 [NTZ, nitazoxanide, reference compound]", "µg·h/mL", 1440),
]

# context switch: different compound, same AUC
Ask: If you can, please state the reported AUC value of "CC1=CC(=O)C(C(C)C)=CC1=O" .
Result: 340

###

# reported Cmax; entries follow
- Procedure details: Pharmacokinetic study after oral administration
- Assay type: in vivo, Wistar albino rats
- Test settings: Wistar albino, rat, plasma; rats, oral 20 mg/kg, n = 6
Hey, just the number and the unit after it is fine.

# Compound, Cmax
records = [
    ("CC(=O)Oc1ccccc1C(=O)Nc1ncc([N+](=O)[O-])s1 [NTZ, nitazoxanide, reference compound]", "53200 ng/mL"),
]

Ask: If you can, please state the reported Cmax value of "CC1=CC(=O)C(C(C)C)=CC1=O" .
Result: 43600 ng/mL

###

# reported concentration at 12 h; entries follow
- Procedure details: Pharmacokinetic study after oral administration
- Type: in vivo, Wistar albino rats
- Test settings: Wistar albino, rat, plasma; rats, oral 20 mg/kg, 12 hours
Hey, just the number and the unit after it is fine.

# Compound, Readout value
measured = [
    ("CC(=O)Oc1ccccc1C(=O)Nc1ncc([N+](=O)[O-])s1 [NTZ, nitazoxanide, reference compound]", "4.16 µg/mL"),
]

# context switch: different compound, same concentration at 12 h
Ask: If you can, please state the reported concentration at 12 h value of CC1=CC(=O)C(C(C)C)=CC1=O [THQ, 2-isopropyl-5-methyl-1,4-benzoquinone] .
Result: 4.88 µg/mL

###

# reported Tmax; entries follow
- Procedure details: Pharmacokinetic study after oral administration
- Format: in vivo, Wistar albino rats
- Test settings: Wistar albino, rat, plasma; rats, oral 20 mg/kg, n = 6
Write it as a number; the unit h goes unstated.

# Molecule, Quantity unit, Readout value
measured = [
    ("CC1=CC(=O)C(C(C)C)=CC1=O", "h", 4),
]

# context switch: different molecule, same Tmax
Ask: If you can, please state the reported Tmax value of CC(=O)Oc1ccccc1C(=O)Nc1ncc([N+](=O)[O-])s1 [NTZ, nitazoxanide, reference compound] .
Result: 2

###

- Procedure details: Pharmacokinetic study after oral administration
- Type: in vivo, Wistar albino rats
- Test settings: Wistar albino, rat, plasma; rats, oral 20 mg/kg, 0.5 hours
Assay metric: concentration at 0.5 h

# Compound, concentration at 0.5 h
data = [
    ("CC1=CC(=O)C(C(C)C)=CC1=O", "9790 ng/mL"),
]

Ask: If you can, please state the reported concentration at 0.5 h value of CC(=O)Oc1ccccc1C(=O)Nc1ncc([N+](=O)[O-])s1 [NTZ, nitazoxanide, reference compound] .
Result: 24900 ng/mL
